biological target: Cruzipain (Trypanosoma cruzi) (UniProt P25779); assay: Inhibition of recombinant Trypanosoma cruzi cruzain at 100 uM using Z-FR-AMC as substrate preincubated for 10 mins followed by substrate addition measured for 5 mins by fluorimetric analysis relative to control
Sequence (P25779 123-467 limits assumed): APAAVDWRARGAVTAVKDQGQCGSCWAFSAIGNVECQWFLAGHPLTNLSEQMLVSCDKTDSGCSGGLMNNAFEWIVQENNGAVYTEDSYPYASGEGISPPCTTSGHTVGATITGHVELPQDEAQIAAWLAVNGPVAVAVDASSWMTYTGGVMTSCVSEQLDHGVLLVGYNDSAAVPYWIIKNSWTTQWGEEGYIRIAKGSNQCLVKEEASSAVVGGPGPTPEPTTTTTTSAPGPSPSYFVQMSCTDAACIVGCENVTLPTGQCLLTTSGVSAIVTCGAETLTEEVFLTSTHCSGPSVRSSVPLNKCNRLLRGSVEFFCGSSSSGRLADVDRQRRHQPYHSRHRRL
outcome_measure: inhibition (%)
Number only, in %; omit the unit.

| compound | test_system | inhibition, % |
| --- | --- | --- |
| CC(NC1=CC(=O)c2ccccc2C1=O)c1ccccc1 (stereo not drawn) | Cruzipain (Trypanosoma cruzi) (UniProt P25779) | 26 |
| COC1=CC(=O)c2ccccc2C1=O | Cruzipain (Trypanosoma cruzi) (UniProt P25779) | 32 |
| O=C1C=C(Br)C(=O)c2ccccc21 | Cruzipain (Trypanosoma cruzi) (UniProt P25779) | 51 |
| CC(C)=CCC1=C(O)c2ccccc2/C(=N/NC(=O)c2ccncc2)C1=O | Cruzipain (Trypanosoma cruzi) (UniProt P25779) | 76 |
| O=C1C=C(Nc2ccc(S(=O)(=O)Nc3ccccn3)cc2)C(=O)c2ccccc21 | Cruzipain (Trypanosoma cruzi) (UniProt P25779) | 95 |

Lab book: inhibition of `Cc1cc(NS(=O)(=O)c2ccc(NC3=CC(=O)c4ccccc4C3=O)cc2)no1` noted as 6

inhibition for `CC(C)=CCC1=C(O)c2ccccc2/C(=N/NC(N)=S)C1=O` is 83

Data point: `O=C1C=C(O)c2ccccc2/C1=N/NC(=O)c1ccncc1` ; inhibition = 66

Kindly note the recorded inhibition for CC(C)=CCC1=C(O)C(=O)c2ccccc2C1=O [LAPACHOL] , which is 35

Just so you know, measured inhibition for `O=C1C=C(Nc2ccccc2)C(=O)c2ccccc21` came out at 48

inhibition in this record for `O=C1C(Cl)=C(Cl)C(=O)c2ccccc21` : 49

# inhibition (compound: `O=C(NNC1=CC(=O)c2ccccc2C1=O)c1ccncc1` ) is 37

Record O=C1C=C(O)C(=O)c2ccccc21 [LAWSONE] , field inhibition: 58
